# System: HCC1937
# Protocol description: area over the GR curve, 72 h; higher = more effect;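 further: Dye Drop or Deep Dye Drop imaging of viable cells in 384-well plates (Hoechst nuclei, LIVE/DEAD dye), nine half-log doses, GR normalized to DMSO controls and time-zero plates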
So I've got a bunch of compounds here, and I need their area over the GR curve values.
Answers are plain numbers, in GR.

Use these answered entries as a reference point.
Compound	area over the GR curve / GR
CCc1cncnc1N1CCN(Cc2nc3ccc(C(F)(F)F)cc3[nH]2)CC1 (max 10 µM)	0.039
N.N.[Cl][Pt][Cl] [Cisplatin] (max 10 µM)	0.327
Cc1cc(Nc2ncc(Cl)c(Nc3ccccc3S(=O)(=O)C(C)C)n2)c(OC(C)C)cc1C1CCNCC1 [Ceritinib/LDK378] (max 10 µM)	0.133

# next compound below
Value lookup for area over the GR curve; key = COc1cc(N2CCN(C)CC2)ccc1Nc1ncc2c(n1)N(C)c1ccccc1C(=O)N2CC(F)(F)F [FMF-03-146-1]
0.0547

---

# Tested on: HTERT_HME1
# Protocol description: GRmax, 72 h; higher = less effect
Experimental endpoint: GRmax, 72 h
Answers without a unit are incomplete; give the number and then its unit.

Use these answered entries as a reference point.
Compound	Result
Cc1nc(-c2cn3c(n2)-c2ccc(-c4cnn(C(C)(C)C(N)=O)c4)cc2OCC3)n(C(C)C)n1 [Taselisib/GDC0032] (max 10 µM)	0.0336 GR
C=CCn1c(=O)c2cnc(Nc3ccc(N4CCN(C)CC4)cc3)nc2n1-c1cccc(C(C)(C)O)n1 [AZD1775] (max 10 µM)	-0.17 GR
NC1(C(=O)N[C@@H](CCO)c2ccc(Cl)cc2)CCN(c2nc[nH]c3nccc2-3)CC1 [AZD5363] (max 10 µM)	0.564 GR
COc1cccc(OCCCN)c1-c1cc(Nc2cnc(C#N)cn2)n[nH]1	-0.0816 GR
CCOc1cc2ncc(C#N)c(Nc3ccc(OCc4ccccn4)c(Cl)c3)c2cc1NC(=O)/C=C/CN(C)C [Neratinib/HKI272] (max 3.162 µM)	0.0983 GR

Required: GRmax, 72 h, one value per compound below.
1. Cc1nc(NC(=O)N2CCC[C@H]2C(N)=O)sc1-c1ccnc(C(C)(C)C(F)(F)F)c1 [Alpelisib/BYL719] (max 10 µM)
2. CN1CCN(C(=O)c2ccc3cc(CCNc4ncnc5ccc(C#N)cc45)ccc3c2)CC1 [senexin b] (max 10 µM)

["0.307 GR", "0.748 GR"]

---

# Tested on: 184A1
# Protocol description: GRmax, 72 h; higher = less effect;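 further: breast cell lines in 384-well plates, nine doses across a 10^4 range, Dye Drop imaging of viable cells vs DMSO and time-zero plates, GR 0 means no net growth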
So I've got a bunch of compounds here, and I need their GRmax, 72 h values.
Give bare numbers, in GR.

Use these answered entries as a reference point.
Compound	Unit name	GRmax, 72 h
CC(=O)O[C@H]1C(=O)[C@@]2(C)[C@H]([C@H](OC(=O)c3ccccc3)[C@]3(O)C[C@H](OC(=O)[C@H](O)[C@@H](NC(=O)c4ccccc4)c4ccccc4)C(C)=C1C3(C)C)[C@]1(OC(C)=O)CO[C@@H]1C[C@@H]2O [Paclitaxel] (max 1 µM)	GR	-0.268
Cc1nc(-c2cn3c(n2)-c2ccc(-c4cnn(C(C)(C)C(N)=O)c4)cc2OCC3)n(C(C)C)n1 [Taselisib/GDC0032] (max 10 µM)	GR	0.0652

Value lookup for GRmax, 72 h; key = NC1(C(=O)N[C@@H](CCO)c2ccc(Cl)cc2)CCN(c2nc[nH]c3nccc2-3)CC1 [AZD5363] (max 10 µM)
0.773

Taken from the supplement of paper PMC9663587.
